Hello, the source for this data is patent US11739098B2, in case you need it.

- SUBJECT_OF_TEST: human TLR7 (Homo sapiens, UniProt Q9NYK1)
- Sequence (Q9NYK1 27-1049): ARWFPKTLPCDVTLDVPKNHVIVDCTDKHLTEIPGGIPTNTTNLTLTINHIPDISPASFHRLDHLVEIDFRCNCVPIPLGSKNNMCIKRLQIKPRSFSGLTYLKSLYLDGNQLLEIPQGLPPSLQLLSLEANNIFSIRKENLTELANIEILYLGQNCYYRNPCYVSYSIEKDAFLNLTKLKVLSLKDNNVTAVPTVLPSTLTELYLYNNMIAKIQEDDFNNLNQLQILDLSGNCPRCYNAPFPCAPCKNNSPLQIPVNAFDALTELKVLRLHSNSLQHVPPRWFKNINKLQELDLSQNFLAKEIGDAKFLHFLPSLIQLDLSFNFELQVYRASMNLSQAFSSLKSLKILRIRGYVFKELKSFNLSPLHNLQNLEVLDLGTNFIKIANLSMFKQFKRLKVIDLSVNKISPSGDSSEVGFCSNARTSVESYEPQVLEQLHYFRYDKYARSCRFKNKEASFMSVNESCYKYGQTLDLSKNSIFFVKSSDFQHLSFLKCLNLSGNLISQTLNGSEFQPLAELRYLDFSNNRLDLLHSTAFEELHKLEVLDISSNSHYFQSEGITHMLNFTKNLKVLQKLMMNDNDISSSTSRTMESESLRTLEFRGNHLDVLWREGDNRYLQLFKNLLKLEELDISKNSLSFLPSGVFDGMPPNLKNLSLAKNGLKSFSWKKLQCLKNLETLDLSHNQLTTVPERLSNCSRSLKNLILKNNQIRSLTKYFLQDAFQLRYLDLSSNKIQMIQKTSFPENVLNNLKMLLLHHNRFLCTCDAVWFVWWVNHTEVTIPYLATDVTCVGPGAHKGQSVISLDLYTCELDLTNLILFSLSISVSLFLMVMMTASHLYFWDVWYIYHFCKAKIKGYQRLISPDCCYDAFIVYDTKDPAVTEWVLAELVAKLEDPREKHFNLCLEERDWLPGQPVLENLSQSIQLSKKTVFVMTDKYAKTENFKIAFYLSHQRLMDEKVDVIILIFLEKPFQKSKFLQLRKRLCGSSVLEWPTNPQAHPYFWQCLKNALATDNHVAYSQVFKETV
- PROTOCOL: TLR7 inhibition reporter assay (HEK-Blue cells, SEAP reporter, gardiquimod stimulation)
- MEASUREMENT_SETUP: HEK-Blue cells overexpressing human TLR7, SEAP reporter, gardiquimod 7.5 μM
- Description: TLR7/8/9 Inhibition Reporter Assays HEK-Blue™-cells (Invivogen) overexpressing human TLR7, TLR8 or TLR9 receptors were used for screening inhibitors of these receptors using an inducible SEAP (secreted embryonic alkaline phosphatase) reporter gene under the control of the IFN-β minimal promoter fused to five NF-κB and AP-1-binding sites. […]
ENDPOINT_NAME: IC50

Illustrative cases are given below, each with its answer.
[[record]]
compound = "Cc1nc[nH]c1CN1CCC(c2ccc3[nH]c(-c4ccnc5[nH]cnc45)c(C(C)C)c3c2)CC1 [Example 861]"
endpoint_name = "IC50"
recorded_result = "< 100 nM"

[[record]]
compound = "COCCN1CCC(c2ccc3[nH]c(-c4ccc(C#N)c5ncccc45)c(C(C)C)c3c2)CC1 [Example 778]"
endpoint_name = "IC50"
recorded_result = "< 100 nM"

[[record]]
compound = "Cc1cc(-c2[nH]c3ccc(C4CCNCC4)cc3c2C(C)C)cc2nccnc12 [Example 88]"
endpoint_name = "IC50"
recorded_result = "< 100 nM"

[[record]]
compound = "CCc1c(-c2cnc3[nH]ncc3c2)[nH]c2ccc(C3CCNCC3)cc12 [Example 53]"
endpoint_name = "IC50"
recorded_result = "100 to 1000 nM"


Here are 7 compounds. What values of IC50 were reported for them?
1. Cc1cc(-c2[nH]c3ccc(C4CCN(C5CCS(=O)(=O)CC5)CC4)cc3c2C(C)C)cn2ccnc12 [Example 799]
2. Cc1c(-c2[nH]c3ccc(C4CCNCC4)cc3c2C(C)C)nn2ncnc2c1C [Example 32]
3. Cc1nnn2ccc(-c3[nH]c4ccc(C5CCN(CC(N)=O)CC5)cc4c3C(C)C)cc12 [Example 317]
4. CNC(=O)CN1CCC(c2ccc3[nH]c(-c4ccc5cnnn5c4)c(C(C)C)c3c2)CC1 [Example 300]
5. CC(C)c1c(-c2ccc3ncc(C#N)n3c2)[nH]c2ccc(C3CCNCC3)cc12 [Example 119]
6. CC(C)c1c(-c2cnc3ncnn3c2)[nH]c2ccc(C3CCN(C(=O)CN(C)C)CC3)cc12 [Example 554]
7. CC(C)c1c(-c2ccn3cnnc3c2)[nH]c2ccc(C3CCN(C(=O)CN(C)C)CC3)cc12 [Example 466]

RESULT:
["< 100 nM", "< 100 nM", "< 100 nM", "100 to 1000 nM", "100 to 1000 nM", "< 100 nM", "< 100 nM"]

Here are 6 compounds. What values of IC50 were reported for them?
1. Cc1ncc(CN2CCC(c3ccc4[nH]c(-c5cn(C)c6ncccc56)c(C(C)C)c4c3)CC2)cn1 [Example 876]
2. CC(C)c1c(-c2ccnc3[nH]ncc23)[nH]c2cc(C(F)(F)F)c(C3CCNCC3)cc12 [Example 249]
3. CC(C)c1c(-c2cn(C)c3ncccc23)[nH]c2ccc(C3CCN(CCC#N)CC3)cc12 [Example 959]
4. CC(C)c1c(-c2ccnc3[nH]ncc23)[nH]c2ccc(C3CCN(CCCN4CCCCC4)CC3)cc12 [Example 848]
5. Cc1cc(-c2[nH]c3ccc(C4CCN(S(=O)(=O)CCO)CC4)cc3c2C(C)C)cn2nnnc12 [Example 616]
6. Cc1cc(-c2[nH]c3ccc(C4CCN(C(=O)CCN5CCC(F)(F)C5)CC4)cc3c2C(C)C)cn2nnnc12 [Example 626]

RESULT:
< 100 nM
< 100 nM
< 100 nM
100 to 1000 nM
< 100 nM
< 100 nM
